Task for the reader: assign each of the following compounds its reported Effect on average arterial blood pressure (first figure of the pair).
Test system: blood circulation
method_notes: Effect on blood circulation in anesthetized dogs (i.v.)
Type: in vivo
recorded_conditions: 1.0 mg/kg i.v., figure before the slash
Numbers only here, please. The scale is mm Hg.

According to the records, this compound COc1ccc2nc(-c3ccc(OCC(O)CN(C)CCc4ccc(OC)c(OC)c4)cc3)n(C)c(=O)c2c1.Cl.Cl (centres unmarked) displays Effect on average arterial blood pressure (first figure of the pair) of -16

According to the records, this compound COc1ccc2nc(-c3ccc(OCC(O)CNC(C)C)cc3)n(C)c(=O)c2c1 (centres unmarked) displays Effect on average arterial blood pressure (first figure of the pair) of -5

According to the records, this compound COc1cccc2c(=O)n(C)c(-c3ccc(OCCCNCC(O)COc4cccc(C)c4)cc3)nc12 (centres unmarked) displays Effect on average arterial blood pressure (first figure of the pair) of -11

According to the records, this compound COc1cc2nc(-c3ccc(OCC(O)CNCCOc4ccccc4C)cc3)n(C)c(=O)c2cc1OC (centres unmarked) displays Effect on average arterial blood pressure (first figure of the pair) of -13

====

Task for the reader: assign each of the following compounds its reported Decrease in contractility dp/dt max.
System: blood circulation
method_notes: Effect on blood circulation in anesthetized dogs (i.v.)
Type: in vivo
recorded_conditions: 1.0 mg/kg i.v., left ventricle
Procedure: The blood circulation tests were carried out on dogs with a body weight of 18-29 kg under chloraloseurethane-nembutal anesthesia (54+270+10 mg/kg i.v.). […] The arterial blood pressure was measured in the arteria carotis by a Statham pressure transducer; the heart rate was measured electronically from the sequence of the R-peaks of the electrocardiogram. […] All parameters were recorded by means of a direct-writer. […]
Note: the reply should be a number with no unit written.

According to the records, this compound COc1cccc2c(=O)n(C)c(-c3ccc(OCCCNCC(O)COc4cccc(C)c4)cc3)nc12 (centres unmarked) displays Decrease in contractility dp/dt max of -23

According to the records, this compound COc1ccc2nc(-c3ccc(OCC(O)CNCCc4ccccc4OC)cc3)n(C)c(=O)c2c1.Cl.Cl (centres unmarked) displays Decrease in contractility dp/dt max of -14

According to the records, this compound COc1cc2nc(-c3ccc(OCC(O)CNCCOc4ccccc4C)cc3)n(C)c(=O)c2cc1OC (centres unmarked) displays Decrease in contractility dp/dt max of -14

According to the records, this compound COc1ccc2nc(-c3ccc(OCC(O)CN(C)CCc4ccc(OC)c(OC)c4)cc3)n(C)c(=O)c2c1.Cl.Cl (centres unmarked) displays Decrease in contractility dp/dt max of -17

According to the records, this compound COc1ccc2nc(-c3ccc(OCC(O)CNC(C)C)cc3)n(C)c(=O)c2c1 (centres unmarked) displays Decrease in contractility dp/dt max of -27

====

Task for the reader: assign each of the following compounds its reported Acute toxicity: animals died.
Tested on: mice
method_notes: Determination of acute toxicity in mice after intravenous administration
Assay type: in vivo
recorded_conditions: 35 mg/kg i.v., observation period 14 days
Description: The acute toxicity of the test compound was determined in mice (observationperiod: 14 days) after intravenous administration.

Form: item COc1ccc2nc(-c3ccc(OCC(O)CN(C)CCc4ccc(OC)c(OC)c4)cc3)n(C)c(=O)c2c1.Cl.Cl (centres unmarked) [B] ; test system mice; Acute toxicity: animals died: 0 out of 5

Form: item COc1ccc2nc(-c3ccc(OCC(O)CNCCc4ccccc4OC)cc3)n(C)c(=O)c2c1.Cl.Cl (centres unmarked) [C] ; test system mice; Acute toxicity: animals died: 0 out of 5

Form: item COc1ccc2nc(-c3ccc(OCC(O)CNC(C)(C)C)cc3)n(C)c(=O)c2c1 (centres unmarked) [Compound A] ; test system mice; Acute toxicity: animals died: 0 out of 5

Form: item COc1cccc2c(=O)n(C)c(-c3ccc(OCCCNCC(O)COc4cccc(C)c4)cc3)nc12 (centres unmarked) [F] ; test system mice; Acute toxicity: animals died: 0 out of 5

Form: item COc1cc2nc(-c3ccc(OCC(O)CNCCOc4ccccc4C)cc3)n(C)c(=O)c2cc1OC (centres unmarked) [E] ; test system mice; Acute toxicity: animals died: 0 out of 5
